Listing of entries alongside the reported composite z-score.
target: Neurogenic locus notch homolog protein 3 (Homo sapiens) (UniProt Q9UM47); test: NOTCH3 binders on small-molecule microarray, primary screen, biochemical, 635/667 nm fluorescence (AID 1096); details: NOTCH3 binding, 635 nm fluorescence, higher = more signal
Sequence (Q9UM47 whole entry, looked up): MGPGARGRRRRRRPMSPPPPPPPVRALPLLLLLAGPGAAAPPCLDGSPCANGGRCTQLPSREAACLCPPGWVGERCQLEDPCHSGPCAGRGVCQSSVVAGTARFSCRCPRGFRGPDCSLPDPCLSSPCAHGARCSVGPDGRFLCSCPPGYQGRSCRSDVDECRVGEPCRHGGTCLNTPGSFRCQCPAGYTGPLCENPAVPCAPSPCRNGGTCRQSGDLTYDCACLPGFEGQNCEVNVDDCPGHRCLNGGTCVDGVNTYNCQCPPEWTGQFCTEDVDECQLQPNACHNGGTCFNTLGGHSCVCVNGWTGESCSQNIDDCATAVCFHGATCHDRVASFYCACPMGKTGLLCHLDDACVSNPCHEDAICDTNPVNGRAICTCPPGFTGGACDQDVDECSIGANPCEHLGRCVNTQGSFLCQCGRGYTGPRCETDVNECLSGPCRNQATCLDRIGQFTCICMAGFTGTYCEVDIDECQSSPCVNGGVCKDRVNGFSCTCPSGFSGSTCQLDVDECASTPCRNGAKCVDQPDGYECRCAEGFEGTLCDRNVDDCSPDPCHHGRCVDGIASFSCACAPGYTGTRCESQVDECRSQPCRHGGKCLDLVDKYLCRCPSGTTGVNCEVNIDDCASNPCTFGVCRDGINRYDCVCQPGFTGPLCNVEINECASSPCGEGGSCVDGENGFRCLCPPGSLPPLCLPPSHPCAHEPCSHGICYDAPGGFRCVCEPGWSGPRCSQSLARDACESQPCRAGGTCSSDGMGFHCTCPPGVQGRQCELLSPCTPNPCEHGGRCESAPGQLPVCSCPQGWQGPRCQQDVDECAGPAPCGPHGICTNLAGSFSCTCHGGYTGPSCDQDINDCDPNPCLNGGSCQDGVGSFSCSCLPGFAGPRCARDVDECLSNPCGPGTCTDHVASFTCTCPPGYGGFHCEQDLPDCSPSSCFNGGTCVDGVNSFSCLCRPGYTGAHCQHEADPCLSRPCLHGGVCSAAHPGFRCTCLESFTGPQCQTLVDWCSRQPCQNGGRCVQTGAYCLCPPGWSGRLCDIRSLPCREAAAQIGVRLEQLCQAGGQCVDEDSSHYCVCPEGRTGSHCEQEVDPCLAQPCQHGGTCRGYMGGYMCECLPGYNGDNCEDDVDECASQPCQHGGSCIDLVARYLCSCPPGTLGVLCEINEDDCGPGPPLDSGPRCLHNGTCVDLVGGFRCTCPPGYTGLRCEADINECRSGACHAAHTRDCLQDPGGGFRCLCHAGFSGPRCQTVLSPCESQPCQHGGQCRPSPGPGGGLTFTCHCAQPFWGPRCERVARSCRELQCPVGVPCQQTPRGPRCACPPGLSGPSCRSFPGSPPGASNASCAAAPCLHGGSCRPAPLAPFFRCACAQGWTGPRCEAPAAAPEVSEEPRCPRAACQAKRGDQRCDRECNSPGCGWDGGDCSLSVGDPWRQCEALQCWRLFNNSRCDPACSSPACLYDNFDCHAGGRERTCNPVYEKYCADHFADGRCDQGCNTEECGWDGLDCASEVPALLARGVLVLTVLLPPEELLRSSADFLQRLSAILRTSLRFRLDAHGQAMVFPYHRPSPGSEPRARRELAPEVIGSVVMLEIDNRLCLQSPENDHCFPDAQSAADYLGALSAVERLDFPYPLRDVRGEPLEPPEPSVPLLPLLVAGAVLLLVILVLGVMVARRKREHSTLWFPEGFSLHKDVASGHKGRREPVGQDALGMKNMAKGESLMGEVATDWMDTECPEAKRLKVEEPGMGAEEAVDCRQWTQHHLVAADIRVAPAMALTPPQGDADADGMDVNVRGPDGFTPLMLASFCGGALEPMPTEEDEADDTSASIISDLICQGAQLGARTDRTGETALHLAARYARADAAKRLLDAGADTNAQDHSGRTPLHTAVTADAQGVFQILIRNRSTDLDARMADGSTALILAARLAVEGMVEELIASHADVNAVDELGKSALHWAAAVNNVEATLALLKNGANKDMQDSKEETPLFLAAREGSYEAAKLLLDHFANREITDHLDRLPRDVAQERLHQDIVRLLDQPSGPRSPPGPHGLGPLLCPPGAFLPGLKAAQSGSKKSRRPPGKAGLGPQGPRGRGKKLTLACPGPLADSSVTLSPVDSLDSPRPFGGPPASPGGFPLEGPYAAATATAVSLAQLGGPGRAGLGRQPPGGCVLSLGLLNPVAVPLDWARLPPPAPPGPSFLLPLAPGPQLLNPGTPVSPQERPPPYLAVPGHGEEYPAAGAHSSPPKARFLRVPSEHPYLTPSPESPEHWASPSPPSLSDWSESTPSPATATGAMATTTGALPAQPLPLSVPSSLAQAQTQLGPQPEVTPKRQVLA

{"molecule": "CO[C@H]1O[C@H](CO)[C@@H](OC(=O)Nc2ccc3c(c2)OCO3)[C@H](OC(=O)c2cc3ccccc3[nH]2)[C@H]1OC(=O)c1cc2ccccc2[nH]1", "composite z-score": 0.123}
{"molecule": "CC(C)(C)N1CC=CC23O[C@@H]4C=CCCOC(=O)C4[C@H]2C(=O)N(CCO)[C@@H]3C1=O (some centres undefined)", "composite z-score": -0.696}
{"molecule": "CN(C)C(=O)[C@]1(CCS(=O)(=O)c2ccccc2)N=C(c2ccc(OCCCO)cc2)O[C@@H]1c1ccccc1N=[N+]=[N-]", "composite z-score": 1.05}
{"molecule": "O=C1OCCC/C=C\\[C@H]2OC34C=CCN(CCN5CCOCC5)C(=O)[C@H]3N(CCCCCCO)C(=O)[C@@H]4C12 (some centres undefined)", "composite z-score": 0.18}
